# test target: C-X-C chemokine receptor type 6 (Homo sapiens)
# experiment notes: potency against CXCR6 with APJ panel – cell-based, beta-arrestin, DiscoveRx, uHTS hits, dose response (AID 624129)
# condition notes: CXCR6 beta-arrestin (DiscoveRx) antagonist cell assay, CXCR6, dose range 1, mean IC50 across replicates
experimental readout: log10 of IC50 (log10 of the value in µM)
All values: base-10 log of IC50 in µM.

Enquiry: Provide one value: measured log10 of IC50 of O=C(/C=C/c1cccc([N+](=O)[O-])c1)c1ccc([N+](=O)[O-])o1
Return: 1.28

Enquiry: State, in one line, measured log10 of IC50 of COc1cccc(-n2nc(C#N)c(Cl)cc2=O)c1
Return: 1.10

Enquiry: Give recorded log10 of IC50. CN(O)C(=S)c1ccccc1
Return: 0.20

Enquiry: Give me measured log10 of IC50, please, for this compound: O=C1N[C@H](Cc2ccccc2)COC(=O)[C@H](Cc2ccc(F)cc2)CC/C=C/C[C@H]1CC(=O)N(CCO)Cc1ccccc1
Return: 0.73

Enquiry: Identify the reported log10 of IC50 for the following entry. C/C(=N/NC(=O)c1ccc(C(C)(C)C)cc1)c1ccccn1
Return: 0.07

Enquiry: Item O=c1oc2ccccc2c(Cl)c1CN1CCCCC1 : provide log10 of IC50
Return: 0.89

Enquiry: Provide log10 of IC50 value for the following compound: Cc1cccc(CS(=O)(=O)c2ncc(Cl)c(C(=O)NCc3ccccc3)n2)c1
Return: 1.12

Enquiry: Provide log10 of IC50 value for the following compound: C=C1C(=O)[C@]23C[C@H]1CCC2[C@@]1(C)C(C[C@@H]3O)[C@](C)(C(=O)OC)CC[C@@H]1OC(C)=O (stereo not given in full)
Return: 0.85

Enquiry: Please give the documented log10 of IC50 of COc1cc(/C=C/C(=O)c2ccc(C)c([N+](=O)[O-])c2)cc(OC)c1O
Return: 1.29

----------
# test target: C-X-C chemokine receptor type 6 (Homo sapiens)
# experiment notes: potency against CXCR6 with APJ panel – cell-based, beta-arrestin, DiscoveRx, uHTS hits, dose response (AID 624129)
# condition notes: CXCR6 beta-arrestin (DiscoveRx) antagonist cell assay, CXCR6, dose range 1, mean IC50 across replicates
experimental readout: IC50 (µM)
Give just the numeric value; µM need not be written.

Enquiry: Let me know recorded IC50 for C=C1C(=O)[C@]23C[C@H]1CCC2[C@@]1(C)C(C[C@@H]3O)[C@](C)(C(=O)OC)CC[C@@H]1O (stereo not given in full) , thanks.
Return: 11.5

Enquiry: Dear colleague, please send me the reported IC50 for Cn1cnc([N+](=O)[O-])c1S(=O)(=O)c1ccc(Cl)cc1 when you can.
Return: 13.9

Enquiry: // Input: CC(C)(C)c1ccc(-n2nc(C#N)c(Cl)cc2=O)cc1 . Output its IC50 only.
Return: 8.28

Enquiry: For the compound CCCNC(=O)c1nnsc1S(=O)c1ccc(Cl)cc1 (stereo not given) , give its measured IC50 value.
Return: 11.7

Enquiry: State its IC50: Cc1cc2nc(N3C(=O)CNC3=S)sc2cc1C
Return: 11.6

Enquiry: Recall and state the measured IC50 for Cc1ccc2c(Cl)cc(Cl)c(O)c2n1 .
Return: 3.59

Enquiry: Kindly indicate its recorded IC50. Item: CN(C)c1nc(=NCc2cccs2)ss1
Return: 5.43

Enquiry: Give IC50 for the following compound: CCN(c1ccccc1)S(=O)(=O)c1ccc(NC(=O)c2nc(S(C)(=O)=O)ncc2Cl)cc1
Return: 10.9

Enquiry: Quick one: give measured IC50 for Oc1ccc(Cl)c2cccnc12
Return: 4.82

Enquiry: Complete the entry with IC50 for Fc1ccc(NC(=S)Nc2nccs2)cc1
Return: 14.1

Enquiry: Give the value of IC50 reported for the following: CCCCCCN1C=C/C(=C\C=C(C#N)C#N)c2ccccc21
Return: 42.5

Enquiry: Report measured IC50; entry is O=S(=O)(Nc1cccc2cccnc12)c1ccccc1
Return: 14.5

Enquiry: Give a short answer stating reported IC50 for CC1=C(C)CC2C(C1)C(=O)c1ccc(Br)cc1S2(=O)=O (stereo not given) .
Return: 30.5

Enquiry: // Input: S=C(NCCCN1CCOCC1)Nc1ccc(Cl)cc1 . Output its IC50 only.
Return: 12.9

Enquiry: Give reported IC50 value for Cc1ccc(OCCn2c(NC(=O)c3ccco3)nc3ccccc32)cc1
Return: 6.79

Enquiry: Quote IC50 reported for COc1cccc(-c2nnc(NC(=O)c3ccc(Cl)s3)o2)c1 please.
Return: 14.3

Enquiry: For Nc1cccc2c1C(=O)N(C(=O)/C=C/c1cccc(F)c1)C2=O , write its IC50.
Return: 51

Enquiry: Read off the recorded IC50 for CC(Oc1cccc(Cl)c1)C(=O)Nc1nc(-c2ccccn2)cs1 (stereo not given)
Return: 7.17

Enquiry: # return recorded IC50 for input C=C(CN(C)C)C(=O)c1ccc(C)cc1C
Return: 45.6

Enquiry: State, in one line, measured IC50 of CC(Oc1cccc(Br)c1)C(=O)NNC(=O)c1ccccn1 (stereo not given)
Return: 14.4

Enquiry: Identify IC50 associated with the compound Cc1cccc(C(=O)Nc2ccc(C(=O)/C=C/c3cccnc3)cc2)c1
Return: 8.81

Enquiry: Kindly indicate its recorded IC50. Item: Cc1ccc(C(=O)Sc2cccccc2=O)cc1
Return: 1.44
